PARAMETER: melting point (°C)
Write down the numeric answer in °C and omit the unit.

Dear colleague, please send me the reported melting point for Cc1c2n(c3c(-c4ccnc(F)c4)cc(C#N)cc13)CCCNC2=O [Example 208] when you can.
264

Dear colleague, please send me the reported melting point for Cc1c2n(c3c(-c4ccc(C(C)C)cc4)cc(F)cc13)CCNC2=O [Example 127] when you can.
177

Dear colleague, please send me the reported melting point for COc1ccc(-c2c(F)c(F)cc3cc4n(c23)CCNC4=O)cc1 [Example 39] when you can.
274.5

Dear colleague, please send me the reported melting point for Cc1cc(-c2ccc(F)cc2)c2c(c1)cc1n2CCNC1=O [Example 62] when you can.
257

Dear colleague, please send me the reported melting point for Cc1c2n(c3c(-c4ccc(CO)cc4)cc(C#N)cc13)CCNC2=O [Example 277] when you can.
265

Dear colleague, please send me the reported melting point for N#Cc1cc(-c2cccc(F)c2)c2c(c1)cc1n2CCCNC1=O [Example 239] when you can.
210.5

Dear colleague, please send me the reported melting point for N#Cc1cc(-c2ccc(F)cc2)c2c(c1)cc1n2CCNC1=O [Example 78] when you can.
297.5

Dear colleague, please send me the reported melting point for C[C@@H]1CNC(=O)c2cc3cccc(-c4ccccc4)c3n21 [Example 1] when you can.
239

----------
PARAMETER: melting point (°C)
Write down the numeric answer in °C and omit the unit.

Dear colleague, please send me the reported melting point for `C[C@@H]1CNC(=O)c2cc3cc(F)cc(-c4ccccc4)c3n21` when you can.
243.5

Dear colleague, please send me the reported melting point for `Cc1c2n(c3c(-c4ccc(F)c(F)c4)cc(C#N)cc13)CCNC2=O` when you can.
243

Dear colleague, please send me the reported melting point for `Cc1c2n(c3c(-c4ccc(F)nc4)cc(C#N)cc13)CCCNC2=O` when you can.
280

Dear colleague, please send me the reported melting point for `N#Cc1ccc(-c2cc(C#N)cc3cc4n(c23)CCNC4=O)cc1` when you can.
363

Dear colleague, please send me the reported melting point for `Cc1ccc(-c2cc(C#N)cc3cc4n(c23)CCCNC4=O)cc1F` when you can.
250.5

Dear colleague, please send me the reported melting point for `COc1ccc(-c2cc(C#N)cc3c(C)c4n(c23)CCNC4=O)cc1` when you can.
285

Dear colleague, please send me the reported melting point for `Cc1cc(-c2cc(F)cc3c(C)c4n(c23)CCNC4=O)ccc1F` when you can.
236

Dear colleague, please send me the reported melting point for `COc1ccc(-c2cc(C#N)cc3cc4n(c23)CCNC4=O)cc1` when you can.
278.5

Dear colleague, please send me the reported melting point for `Cc1c2n(c3c(-c4ccc(Cl)c(F)c4)cc(F)cc13)CCNC2=O` when you can.
216

Dear colleague, please send me the reported melting point for `Cc1c2n(c3c(-c4ccc(Cl)cc4)cc(C#N)cc13)CCCNC2=O` when you can.
298

Dear colleague, please send me the reported melting point for `Cc1c2n(c3c(-c4ccc(C(F)(F)F)cc4)cc(C#N)cc13)CCNC2=O` when you can.
282

Dear colleague, please send me the reported melting point for `Cc1c2n(c3c(-c4ccc(Cl)c(F)c4)cc(C#N)cc13)CCCNC2=O` when you can.
247.5

Dear colleague, please send me the reported melting point for `N#Cc1cc(-c2ccc(C(F)(F)F)cc2)c2c(c1)cc1n2CCCNC1=O` when you can.
241.5

Dear colleague, please send me the reported melting point for `Cc1c2n(c3c(-c4ccc(F)cc4F)cc(C#N)cc13)CCCNC2=O` when you can.
225

Dear colleague, please send me the reported melting point for `Cc1c2n(c3c(-c4cc(F)cc(F)c4)cc(F)cc13)CCNC2=O` when you can.
250

Dear colleague, please send me the reported melting point for `COc1ccc(-c2cccc3cc4n(c23)[C@H](C)CNC4=O)cc1` when you can.
247

Dear colleague, please send me the reported melting point for `CS(=O)(=O)c1ccc(-c2cc(C#N)cc3cc4n(c23)CCNC4=O)cc1` when you can.
329

Dear colleague, please send me the reported melting point for `Cc1c2n(c3c(-c4ccc(S(C)(=O)=O)cc4)cc(C#N)cc13)CCNC2=O` when you can.
332

Dear colleague, please send me the reported melting point for `N#Cc1cc(-c2ccc(Cl)cc2)c2c(c1)cc1n2CCNC1=O` when you can.
316.5

Dear colleague, please send me the reported melting point for `Cc1c2n(c3c(-c4ccc(C(C)(C)C)cc4)cc(F)cc13)CCNC2=O` when you can.
216

Dear colleague, please send me the reported melting point for `Cc1c2n(c3c(-c4cccc(C#N)c4)cc(F)cc13)CCNC2=O` when you can.
192

Dear colleague, please send me the reported melting point for `Cc1c2n(c3c(-c4ccc(N(C)C)nc4)cc(F)cc13)CCNC2=O` when you can.
259

Dear colleague, please send me the reported melting point for `Cc1c2n(c3c(-c4ccc(F)c(F)c4)cc(C#N)cc13)CCCNC2=O` when you can.
278

Dear colleague, please send me the reported melting point for `Cc1c2n(c3c(-c4ccc(C(C)(C)C)cc4)cc(Cl)cc13)CCNC2=O` when you can.
252

Dear colleague, please send me the reported melting point for `O=C1NCCn2c1cc1cc(F)cc(-c3ccc(Cl)cc3)c12` when you can.
322

Dear colleague, please send me the reported melting point for `N#Cc1cccc(-c2cc(C#N)cc3cc4n(c23)CCCNC4=O)c1` when you can.
225.5

Dear colleague, please send me the reported melting point for `N#Cc1cc(-c2ccc(Cl)cc2F)c2c(c1)cc1n2CCNC1=O` when you can.
278

Dear colleague, please send me the reported melting point for `Cc1cc(-c2cc(C#N)cc3c(C)c4n(c23)CCNC4=O)ccc1F` when you can.
232

Dear colleague, please send me the reported melting point for `C[C@@H]1CNC(=O)c2cc3cccc(-c4ccncc4)c3n21` when you can.
264

Dear colleague, please send me the reported melting point for `O=C1NCCCn2c1cc1cc(F)cc(-c3ccncc3)c12` when you can.
309

Dear colleague, please send me the reported melting point for `Cc1c2n(c3c(-c4cc(F)c(F)c(F)c4)cc(C#N)cc13)CCNC2=O` when you can.
253
